System: B. subtilis membranes
Assay: DiSC3(5) depolarization assay, MAcBCE/MAkBCE
Format: cell-based, Bacillus subtilis
Conditions: 2 μM compound; 60 mM KCl, NaCl or NMDG-Cl; 25° C; 10 minutes
Experimental: A 2 mL liquid culture of transformed B. subtilis cells was grown at 37° C. in LB medium supplemented with 5 μg/mL kanamycin until OD600=0.6 was reached. The cells were collected by centrifugation at 2000 rpm over 3 min. […] After 150 sec (timepoint t3, 250 sec), the fluorescence stabilized to a minimum intensity and 100 μL of the 2 M NMDG-Cl, NaCl or KCl solution was added to reach ˜60 mM final concentration of the salt. […]
OBSERVED PROPERTY: change in DiSC3(5) fluorescence (membrane depolarization)

STRUCTURE SMILES	VALUE
CCCCCCCCCC(=O)c1ccc2c(c1)OCCOCCOCCO2	negligible
CCCCCCCCCCc1ccc2c(c1)OCCOCCOCCO2	negligible

Where do these numbers come from? They come from patent US20230060873A1.
